Form field: IC50 (one value per entry).
System: HCT116 cells (colorectal adenocarcinoma)
Assay: Sulforhodamine B (SRB) antiproliferative assay, HCT116
Format: cell-based
Conditions: Homo sapiens, HCT-116, HCT116, 48 h, mean ± SEM of four to six independent experiments
Description: The antiproliferative properties of andrographolide and all prepared derivatives (2–26) were evaluated against a panel of different cancer cell lines, including human pancreatic ductal adenocarcinoma (PANC-1), colorectal adenocarcinoma (HCT116), melanoma (A375), breast adenocarcinoma (MCF-7) and a non-tumorigenic colon (CCD-18Co) cell line using the sulforhodamine B assay. […]
Endpoint label: IC50

[[record]]
molecule = "C=C1CC[C@@H]2[C@](C)(COC(C)=O)[C@H](OC(C)=O)CC[C@@]2(C)[C@@H]1C[C@H](C1=CCOC1=O)n1cc(-c2ccc(C#N)cc2)nn1"
reported = "2 µM"

[[record]]
molecule = "C=C1CC[C@@H]2[C@](C)(COC(C)=O)[C@H](OC(C)=O)CC[C@@]2(C)[C@@H]1C[C@H](C1=CCOC1=O)n1cc(-c2ccncc2)nn1"
reported = "1.6 µM"

[[record]]
molecule = "C=C1CC[C@@H]2[C@](C)(COC(C)=O)[C@H](OC(C)=O)CC[C@@]2(C)[C@@H]1C[C@@H](C1=CCOC1=O)n1cc(-c2ccsc2)nn1"
reported = "1.3 µM"

[[record]]
molecule = "C=C1CC[C@@H]2[C@](C)(COC(C)=O)[C@H](OC(C)=O)CC[C@@]2(C)[C@@H]1C/C=C1/C(=O)OC[C@H]1OC(C)=O [Compound 2, 3,14,19-Triacetyl Andrographolide]"
reported = "1.4 µM"

[[record]]
molecule = "C=C1CC[C@@H]2[C@](C)(COC(C)=O)[C@H](OC(C)=O)CC[C@@]2(C)[C@@H]1C[C@H](C1=CCOC1=O)n1cc(C(C)(C)O)nn1"
reported = "8.4 µM"

[[record]]
molecule = "C=C1CC[C@@H]2[C@](C)(COC(C)=O)[C@H](OC(C)=O)CC[C@@]2(C)[C@@H]1C[C@H](C1=CCOC1=O)n1cc(-c2ccccc2)nn1"
reported = "2.2 µM"

[[record]]
molecule = "C=C1CC[C@@H]2[C@](C)(COC(C)=O)[C@H](OC(C)=O)CC[C@@]2(C)[C@@H]1C[C@H](C1=CCOC1=O)n1cc(-c2ccc(OC)cc2)nn1"
reported = "2.3 µM"

[[record]]
molecule = "C=C1CC[C@@H]2[C@](C)(COC(C)=O)[C@H](OC(C)=O)CC[C@@]2(C)[C@@H]1C[C@H](C1=CCOC1=O)n1cc(-c2ccc(Br)cc2)nn1"
reported = "1.7 µM"

[[record]]
molecule = "COc1cc([C@@H]2c3cc4c(cc3[C@@H](O[C@@H]3O[C@@H]5CO[C@@H](C)O[C@H]5[C@H](O)[C@H]3O)[C@H]3COC(=O)[C@H]23)OCO4)cc(OC)c1O [Etoposide, reference compound]"
reported = "0.65 µM"

[[record]]
molecule = "C=C1CC[C@@H]2[C@](C)(COC(C)=O)[C@H](OC(C)=O)CC[C@@]2(C)[C@@H]1C[C@@H](C1=CCOC1=O)n1cc(-c2ccc(OC(F)(F)F)cc2)nn1"
reported = "4.1 µM"

[[record]]
molecule = "C=C1CC[C@@H]2[C@](C)(COC(C)=O)[C@H](OC(C)=O)CC[C@@]2(C)[C@@H]1C[C@@H](C1=CCOC1=O)n1cc(-c2ccccc2)nn1"
reported = "1.9 µM"


---

system: HCT116 cells (colorectal adenocarcinoma); experiment: Sulforhodamine B (SRB) antiproliferative assay, HCT116; type: cell-based; details: Homo sapiens, HCT-116, HCT116, 48 h, mean ± SEM of four to six independent experiments
Endpoint label: IC50 (µM)

[[record]]
item_smiles = "C=C1CC[C@@H]2[C@](C)(COC(C)=O)[C@H](OC(C)=O)CC[C@@]2(C)[C@@H]1C[C@@H](C1=CCOC1=O)n1cc(-c2ccncc2)nn1"
reported = 2.8

[[record]]
item_smiles = "C=C1CC[C@@H]2[C@](C)(COC(C)=O)[C@H](OC(C)=O)CC[C@@]2(C)[C@@H]1C[C@@H](C1=CCOC1=O)n1cc(-c2ccc(-c3ccccc3)cc2)nn1"
reported = 1.2

[[record]]
item_smiles = "C=C1CC[C@@H]2[C@](C)(COC(C)=O)[C@H](OC(C)=O)CC[C@@]2(C)[C@@H]1C[C@H](C1=CCOC1=O)n1cc(-c2ccccn2)nn1"
reported = 6.7

